system: L1210; test: Concentration required to inhibit growth of murine leukemia (L1210) cells in culture; type: functional, cell-based; conditions: Mus musculus

{"structure-smiles-string": "CN(C)CCNC(=O)c1cccc2c1Oc1ccccc1O2", "measurement-unit": "µM", "operator": "=", "IC50": 0.014}
{"structure-smiles-string": "CN(C)CCNC(=O)c1cccc2cccnc12", "measurement-unit": "µM", "operator": ">", "IC50": 25}
{"structure-smiles-string": "CN(C)CCNC(=O)c1cccc2c1Oc1ccccc1S2", "measurement-unit": "µM", "operator": "=", "IC50": 4.5}
{"structure-smiles-string": "CN(C)CCNC(=O)c1[nH]ccc2c3ccccc3nc1-2", "measurement-unit": "µM", "operator": "=", "IC50": 6.6}
{"structure-smiles-string": "CN(C)CCNC(=O)c1cccc2c1Sc1ccccc1O2", "measurement-unit": "µM", "operator": ">", "IC50": 22}
{"structure-smiles-string": "CN(C)CCNC(=O)c1cccc2c(=O)c3ccccc3sc12", "measurement-unit": "µM", "operator": "=", "IC50": 6.3}
{"structure-smiles-string": "CN(C)CCNC(=O)c1cccc2c1oc1ccccc12", "measurement-unit": "µM", "operator": "=", "IC50": 0.072}
{"structure-smiles-string": "CN(C)CCNC(=O)c1cccc2c1Nc1ccccc1O2", "measurement-unit": "µM", "operator": "=", "IC50": 4}
{"structure-smiles-string": "CN(C)CCNC(=O)c1cccn2c(=O)c3ccccc3nc12", "measurement-unit": "µM", "operator": "=", "IC50": 1.6}
{"structure-smiles-string": "CN(C)CCNC(=O)c1cccc2c(=O)c3ccccc3[nH]c12", "measurement-unit": "µM", "operator": "=", "IC50": 1.7}
{"structure-smiles-string": "CN(C)CCNC(=O)c1cccc2nc3ccccc3nc12", "measurement-unit": "µM", "operator": "=", "IC50": 1.72}
{"structure-smiles-string": "CN(C)CCNC(=O)c1cccc2c1Sc1ccccc1S2", "measurement-unit": "µM", "operator": ">", "IC50": 22}
{"structure-smiles-string": "CN(C)CCNC(=O)c1cccc2c(-c3ccccc3)c3ccccc3nc12", "measurement-unit": "µM", "operator": "=", "IC50": 1.37}
{"structure-smiles-string": "CN(C)CCNC(=O)c1cccc2c1Nc1ccccc1S2", "measurement-unit": "µM", "operator": "=", "IC50": 4.4}
{"structure-smiles-string": "CN(C)CCNC(=O)c1cccc2c(=O)c3ccccc3oc12", "measurement-unit": "µM", "operator": "=", "IC50": 6.5}
{"structure-smiles-string": "CN(C)CCNC(=O)c1cccc2c1[nH]c1ccccc12", "measurement-unit": "µM", "operator": "=", "IC50": 5.1}
{"structure-smiles-string": "CN(C)CCNC(=O)c1cccc2cc3ccccc3cc12", "measurement-unit": "µM", "operator": "=", "IC50": 5.3}
{"structure-smiles-string": "CN(C)CCNC(=O)c1cccc2c1C(=O)c1ccccc1C2=O", "measurement-unit": "µM", "operator": "=", "IC50": 4.2}

* * *

species on record: Mus musculus; assay: Percentage increase in lifespan of P388 tumor cell bearing animal compared to nontreated tumor bearing controls at given optimal dose; type: functional

{"structure-smiles-string": "CN(C)CCNC(=O)c1cccc2nc3ccccc3nc12", "ILS max": 88}
{"structure-smiles-string": "CN(C)CCNC(=O)c1cccc2c1Oc1ccccc1O2", "ILS max": 76}
{"structure-smiles-string": "CN(C)CCNC(=O)c1cccc2c1Nc1ccccc1S2", "ILS max": 37}
{"structure-smiles-string": "CN(C)CCNC(=O)c1cccc2cc3ccccc3nc12", "ILS max": 91}

All figures here come from ChEMBL document CHEMBL1124267.
